The reported measurements were obtained from patent US10266497B2.

# Assayed system: FAAH (Homo sapiens)
# Assay method text: In vitro competitive activity-based protein profiling, FAAH, human
# Stated conditions: read-out: FAAH % inh. 1 μM (human)
Measured inhibition at 1 µM accompanies every entry in the list below.

O=C(O)c1ccn(C(=O)N2CC3CN(Cc4cccc(-c5ccccc5)c4)CC3C2)n1 (stereo not shown) ... 0 to 25%
O=C(O)c1ccn(C(=O)N2CCN(Cc3ccc(C(F)(F)F)cc3N3CC[C@@H](F)C3)CC2)n1 ... 0 to 25%

I have this compound here, O=C(O)c1ccn(C(=O)N2CCN(Cc3cc4cc(Cl)ccc4s3)CC2)n1 , and I need its recorded inhibition at 1 µM.
25 to 50%

###

Measured inhibition at 1 µM accompanies every entry in the list below.
# Assayed system: FAAH (Homo sapiens, UniProt O00519)
# Sequence (O00519 1-579): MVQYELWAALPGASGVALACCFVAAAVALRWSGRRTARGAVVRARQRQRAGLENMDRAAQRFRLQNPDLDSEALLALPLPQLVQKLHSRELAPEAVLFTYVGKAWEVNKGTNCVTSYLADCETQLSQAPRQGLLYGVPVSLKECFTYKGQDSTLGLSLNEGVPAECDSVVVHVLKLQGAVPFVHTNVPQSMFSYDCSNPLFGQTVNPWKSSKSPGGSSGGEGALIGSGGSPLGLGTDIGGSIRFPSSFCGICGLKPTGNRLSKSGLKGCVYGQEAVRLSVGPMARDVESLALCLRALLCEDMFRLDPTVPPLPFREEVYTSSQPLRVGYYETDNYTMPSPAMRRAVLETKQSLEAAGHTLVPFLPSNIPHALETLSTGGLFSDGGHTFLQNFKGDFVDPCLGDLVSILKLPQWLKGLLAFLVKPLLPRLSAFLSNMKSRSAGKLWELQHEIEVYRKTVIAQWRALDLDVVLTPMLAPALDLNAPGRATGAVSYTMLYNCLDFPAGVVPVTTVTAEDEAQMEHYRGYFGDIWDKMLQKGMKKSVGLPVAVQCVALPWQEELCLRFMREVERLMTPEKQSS
# Assay method text: In vitro competitive activity-based protein profiling, FAAH, human
# Stated conditions: read-out: FAAH % inh. 1 μM (human)

NC(=O)c1ccn(C(=O)N2CCC3(CCN(Cc4cc(F)cc(Cl)c4)C3)CC2)n1 ... > 75%

I have this molecule here, CN(Cc1ccc(C(F)(F)F)cc1N1CCCC1)C1(C)CCN(C(=O)n2ccc(C(=O)O)n2)CC1 , and I need its recorded inhibition at 1 µM.
0 to 25%

Next record, please: NC(=O)c1ccc(CN2CCN(C(=O)n3ccc(C(=O)O)n3)CC2)cc1C(F)(F)F
0 to 25%

Next record, please: O=C(O)c1ccn(C(=O)N2C[C@H]3C[C@H](OCc4ccc(Oc5ccc(Cl)cc5)cc4)C[C@H]3C2)n1
> 75%

Next record, please: O=C(O)c1ccn(C(=O)N2CCC3(CCCN3Cc3cc(N4CCCC4)cc(C(F)(F)F)c3)CC2)n1
0 to 25%

###

# Assayed system: UniProt:O35678
# Sequence (O35678 whole entry): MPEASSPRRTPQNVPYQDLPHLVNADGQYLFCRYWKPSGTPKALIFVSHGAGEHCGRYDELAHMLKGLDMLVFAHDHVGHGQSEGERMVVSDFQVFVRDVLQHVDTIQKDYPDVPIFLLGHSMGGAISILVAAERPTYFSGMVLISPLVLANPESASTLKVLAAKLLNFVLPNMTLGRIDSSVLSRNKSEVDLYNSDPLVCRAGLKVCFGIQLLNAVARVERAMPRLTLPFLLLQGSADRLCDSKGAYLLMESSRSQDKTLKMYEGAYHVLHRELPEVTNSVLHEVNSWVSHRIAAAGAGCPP
# Assay method text: In vitro competitive activity-based protein profiling, MAGL, mouse
# Stated conditions: read-out: MAGL % inh. 1 μM (mouse)
Attribute measured: inhibition at 1 µM

Worked set:
O=C(O)c1ccn(C(=O)N2C[C@H]3C[C@H](Oc4cccc(-c5cccnc5)c4)C[C@H]3C2)n1 ... > 75%
O=C(O)c1nn(C(=O)N2CCN(Cc3cccc(-c4cncnc4)c3)CC2)cc1Cl ... > 75%

I have this molecule here, CN(Cc1cccc(-c2ccccc2)c1)[C@H]1C[C@@H]2CN(C(=O)n3ccc(C(=O)O)n3)C[C@@H]2C1 , and I need its recorded inhibition at 1 µM.
> 75%

Next record, please: O=C(O)c1nn(C(=O)N2CC3CC(OCc4ccccc4Cl)CC3C2)cc1C(F)(F)F (stereo not shown)
0 to 25%

Next record, please: NC(=O)c1ccn(C(=O)N2CCC3(CCN(Cc4cc5ccc(C(F)(F)F)cc5s4)C3)CC2)n1
0 to 25%

Next record, please: O=C(O)c1nn(C(=O)N2CCN(Cc3cccc(Oc4ccc(Cl)cc4)c3)CC2)cc1Cl
> 75%

Next record, please: CNC(=O)c1ccn(C(=O)N2CC3CN(Cc4cc(Cl)cc(C(F)(F)F)c4)CC3C2)n1 (stereo not shown)
> 75%

###

# Assayed system: MAGL (Homo sapiens)
# Assay method text: In vitro competitive activity-based protein profiling, MAGL, human
# Stated conditions: read-out: MAGL % inh. 1 μM (human)
Attribute measured: inhibition at 1 µM

O=C(O)c1ccn(C(=O)N2C[C@H]3C[C@@H](Oc4cccc(-c5ccccc5)c4)C[C@H]3C2)n1 [Example 164] ... > 75%
O=C(O)c1ccn(C(=O)N2CCC(OCc3cc(Cl)cc(C(F)(F)F)c3)CC2)n1 [Example 275] ... > 75%
O=C(O)c1ccn(C(=O)N2CCN(Cc3cc(F)cc(Oc4ccc(Cl)cc4)c3)CC2)n1 [Example 161] ... > 75%

Now examine the next entry.
I have this molecule here, O=C(O)c1ccn(C(=O)N2CCN(Cc3cccc(Oc4ncccn4)c3)CC2)n1 [Example 62] , and I need its recorded inhibition at 1 µM.
50 to 75%

###

# Assayed system: FAAH (Mus musculus)
# Sequence (O08914 1-579): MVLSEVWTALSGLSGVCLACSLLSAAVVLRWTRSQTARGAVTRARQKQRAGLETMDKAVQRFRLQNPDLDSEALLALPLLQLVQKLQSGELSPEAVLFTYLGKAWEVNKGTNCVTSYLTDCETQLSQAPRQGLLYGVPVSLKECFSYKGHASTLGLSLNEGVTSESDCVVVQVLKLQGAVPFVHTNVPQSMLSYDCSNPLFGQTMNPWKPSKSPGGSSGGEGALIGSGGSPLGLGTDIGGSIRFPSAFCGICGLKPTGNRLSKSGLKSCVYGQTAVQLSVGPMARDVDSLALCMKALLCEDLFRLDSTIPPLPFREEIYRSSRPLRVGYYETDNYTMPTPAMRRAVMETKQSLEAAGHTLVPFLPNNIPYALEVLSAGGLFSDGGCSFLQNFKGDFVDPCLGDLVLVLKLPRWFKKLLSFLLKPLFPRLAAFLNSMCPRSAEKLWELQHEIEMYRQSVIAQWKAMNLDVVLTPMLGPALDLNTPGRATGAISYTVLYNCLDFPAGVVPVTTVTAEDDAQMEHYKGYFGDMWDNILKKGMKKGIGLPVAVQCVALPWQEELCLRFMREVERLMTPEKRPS
# Assay method text: In vitro competitive activity-based protein profiling, FAAH, mouse
# Stated conditions: read-out: FAAH % inh. 1 μM (mouse)
Attribute measured: inhibition at 1 µM

I have this compound here, O=C(O)c1ccn(C(=O)N2CC3CN(Cc4ccc(N5CCCC5)cc4C(F)(F)F)CC3C2)n1 (stereo not shown) , and I need its recorded inhibition at 1 µM.
> 75%

Next record, please: CC1CCC(C)N1c1cc(C(F)(F)F)ccc1CN1CCN(C(=O)n2ccc(C(=O)O)n2)CC1 (stereo not shown)
0 to 25%

Next record, please: NC(=O)c1ccn(C(=O)N2CC3CN(Cc4ccc(C(F)(F)F)cc4)CC3C2)n1 (stereo not shown)
> 75%

Next record, please: Cc1cc(CN2CCC3(CCN(C(=O)n4ccc(C(=O)O)n4)CC3)C2)ccc1C(F)(F)F
0 to 25%

Next record, please: NC(=O)c1ccn(C(=O)N2CCN(Cc3ccc(C(F)(F)F)cc3N3CCCC3)CC2)n1
50 to 75%

Next record, please: O=C(O)c1ccn(C(=O)N2CCC3(CCN(Cc4cccc(C(F)(F)F)c4)C3)CC2)n1
0 to 25%

Next record, please: Cc1cc(-c2ccccc2)ccc1CN1CCN(C(=O)n2ccc(C(=O)O)n2)CC1
50 to 75%

Next record, please: CN(Cc1ccc(C(F)(F)F)cc1)[C@@H]1C[C@@H]2CN(C(=O)n3ccc(C(N)=O)n3)C[C@@H]2C1
> 75%

Next record, please: O=C(O)c1ccn(C(=O)N2CCN(Cc3ccc(C(F)(F)F)cc3N3CCOCC3)CC2)n1
0 to 25%

Next record, please: O=C(O)c1ccn(C(=O)N2CC3CN(Cc4ccc(C(F)(F)F)cc4)CC3C2)n1 (stereo not shown)
25 to 50%

###

# Assayed system: MAGL (Homo sapiens, UniProt Q99685)
# Sequence (Q99685 whole entry): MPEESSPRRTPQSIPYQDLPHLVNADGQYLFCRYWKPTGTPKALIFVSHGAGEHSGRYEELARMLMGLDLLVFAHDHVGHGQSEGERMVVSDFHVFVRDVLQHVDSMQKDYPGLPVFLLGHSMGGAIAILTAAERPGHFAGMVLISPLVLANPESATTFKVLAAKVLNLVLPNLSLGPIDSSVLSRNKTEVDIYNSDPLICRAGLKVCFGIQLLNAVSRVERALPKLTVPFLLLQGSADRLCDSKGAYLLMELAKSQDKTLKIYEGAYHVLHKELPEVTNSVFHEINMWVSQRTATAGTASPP
# Assay method text: In vitro competitive activity-based protein profiling, MAGL, human
# Stated conditions: read-out: MAGL % inh. (human) at 10 uM
Measured inhibition at 10 µM accompanies every entry in the list below.

O=C(O)c1ccn(C(=O)N2CCC3(CCN(Cc4cccc(-c5ccccn5)c4)C3)CC2)n1 ... > 75%
O=C(O)c1ccn(C(=O)N2C[C@H]3C[C@H](NCc4cccc(-c5ccccc5)c4)C[C@H]3C2)n1 ... > 75%
O=C(O)c1ccn(C(=O)N2CCC3(CCN(Cc4cc(F)cc(F)c4)C3)CC2)n1 ... > 75%

Quick check: inhibition at 10 µM on MAGL (Homo sapiens, UniProt Q99685), item O=C(O)c1ccn(C(=O)N2CCC3(CCN(Cc4cccc(-c5cncnc5)c4)C3)CC2)n1 ?
> 75%
